experimental.target: T1, 4H3094-AA
T1 chain: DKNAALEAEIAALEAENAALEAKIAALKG
protocol.text: two-hybrid library CCmax;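 also: natural log of median RNA to DNA barcode read ratio; higher means stronger binding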
condition.description: mean of both orientations
metric: interaction score

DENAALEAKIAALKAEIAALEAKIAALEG [4H1349-AA]    -0.703
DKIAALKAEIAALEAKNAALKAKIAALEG [4H2621-AA]    1.09
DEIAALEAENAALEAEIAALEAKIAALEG [4H133-AA]    -1.05
DKIAALKAKNAALEAEIAALEAENAALEG [4H2947-AA]    1.06
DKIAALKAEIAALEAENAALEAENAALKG [4H2580-AA]    -1.36

The measurements presented in this section are drawn from paper PMC10397247.
